# Measurement Notes: Intravenous pharmacokinetics in Sprague-Dawley rats
# Applied Conditions: hydroxycodone series, IV 1 mg/kg, rats, Mean ± SD
Label rule, in plain words: Vss of 5 L/kg and up is Y, under 5 L/kg is N.

>>> qualitative_label("COCCOCCOCCOCCOCCOCCOCCOCCOCCO[C@H]1CC[C@@]2(O)[C@H]3Cc4ccc(OC)c5c4[C@@]2(CCN3C)[C@H]1O5 [α-6-mPEG9-O-Hydroxycodone, α-6-mPEG9-O-hydroxycodone]")
"Y"
>>> qualitative_label("COCCOCCOCCOCCO[C@H]1CC[C@@]2(O)[C@H]3Cc4ccc(OC)c5c4[C@@]2(CCN3C)[C@H]1O5 [α-6-mPEG4-O-Hydroxycodone, α-6-mPEG4-O-hydroxycodone]")
"N"
>>> qualitative_label("COCCOCCOCCOCCOCCOCCO[C@H]1CC[C@@]2(O)[C@H]3Cc4ccc(OC)c5c4[C@@]2(CCN3C)[C@H]1O5 [α-6-mPEG6-O-Hydroxycodone, α-6-mPEG6-O-hydroxycodone]")
"N"
>>> qualitative_label("COCCOCCO[C@H]1CC[C@@]2(O)[C@H]3Cc4ccc(OC)c5c4[C@@]2(CCN3C)[C@H]1O5 [α-6-mPEG2-O-Hydroxycodone, α-6-mPEG2-O-hydroxycodone]")
"N"
>>> qualitative_label("COCCOCCOCCOCCOCCO[C@H]1CC[C@@]2(O)[C@H]3Cc4ccc(OC)c5c4[C@@]2(CCN3C)[C@H]1O5 [α-6-mPEG5-O-Hydroxycodone, α-6-mPEG5-O-hydroxycodone]")
"N"
>>> qualitative_label("COCCOCCOCCO[C@H]1CC[C@@]2(O)[C@H]3Cc4ccc(OC)c5c4[C@@]2(CCN3C)[C@H]1O5 [α-6-mPEG3-O-Hydroxycodone, α-6-mPEG3-O-hydroxycodone]")
"N"
>>> qualitative_label("COCCOCCOCCOCCOCCOCCOCCO[C@H]1CC[C@@]2(O)[C@H]3Cc4ccc(OC)c5c4[C@@]2(CCN3C)[C@H]1O5 [α-6-mPEG7-O-Hydroxycodone, α-6-mPEG7-O-oxycodone]")
"Y"

* * *

# Test System: cloned human mu opioid receptor (Homo sapiens (Human))
# Measurement Notes: cell-based
# Applied Conditions: inhibition of cAMP formation, maximal response vs known full agonist
Measured Attribute: MU OPIOID RECEPTOR % max effect (%)

>>> reported_result("COCCOCCOCCO[C@H]1CC[C@@]2(O)[C@H]3Cc4ccc(OC)c5c4[C@@]2(CCN3C)[C@H]1O5 [α-6-mPEG3-O-Hydroxycodone, α-6-mPEG3-O-hydroxycodone]")
108
>>> reported_result("COCCOCCOCCOCCOCCOCCO[C@H]1CC[C@@]2(O)[C@H]3Cc4ccc(OC)c5c4[C@@]2(CCN3C)[C@H]1O5 [α-6-mPEG6-O-Hydroxycodone, α-6-mPEG6-O-hydroxycodone]")
102
>>> reported_result("COCCOCCOCCOCCOCCO[C@H]1CC[C@@]2(O)[C@H]3Cc4ccc(OC)c5c4[C@@]2(CCN3C)[C@H]1O5 [α-6-mPEG5-O-Hydroxycodone, α-6-mPEG5-O-hydroxycodone]")
108
>>> reported_result("COCCOCCOCCOCCOCCOCCOCCO[C@H]1CC[C@@]2(O)[C@H]3Cc4ccc(OC)c5c4[C@@]2(CCN3C)[C@H]1O5 [α-6-mPEG7-O-Hydroxycodone, α-6-mPEG7-O-oxycodone]")
101
>>> reported_result("COCCOCCO[C@H]1CC[C@@]2(O)[C@H]3Cc4ccc(OC)c5c4[C@@]2(CCN3C)[C@H]1O5 [α-6-mPEG2-O-Hydroxycodone, α-6-mPEG2-O-hydroxycodone]")
101
>>> reported_result("COCCO[C@H]1CC[C@@]2(O)[C@H]3Cc4ccc(OC)c5c4[C@@]2(CCN3C)[C@H]1O5 [α-6-mPEG1-O-Hydroxycodone, α-6-mPEG1-O-hydroxycodone]")
102

* * *

# Measurement Notes: Intravenous pharmacokinetics in Sprague-Dawley rats
# Applied Conditions: hydroxycodone series, IV 1 mg/kg, rats, Mean ± SD
Lab note: compare AUCinf against 20000 ng·min/mL. Equal or greater, write 1. Smaller, write -1.

>>> qualitative_label("COCCOCCOCCOCCOCCOCCOCCOCCOCCO[C@H]1CC[C@@]2(O)[C@H]3Cc4ccc(OC)c5c4[C@@]2(CCN3C)[C@H]1O5 [α-6-mPEG9-O-Hydroxycodone, α-6-mPEG9-O-hydroxycodone]")
1
>>> qualitative_label("COCCOCCO[C@H]1CC[C@@]2(O)[C@H]3Cc4ccc(OC)c5c4[C@@]2(CCN3C)[C@H]1O5 [α-6-mPEG2-O-Hydroxycodone, α-6-mPEG2-O-hydroxycodone]")
-1
>>> qualitative_label("COCCOCCOCCOCCOCCOCCOCCO[C@H]1CC[C@@]2(O)[C@H]3Cc4ccc(OC)c5c4[C@@]2(CCN3C)[C@H]1O5 [α-6-mPEG7-O-Hydroxycodone, α-6-mPEG7-O-oxycodone]")
-1
>>> qualitative_label("COCCOCCOCCOCCOCCOCCO[C@H]1CC[C@@]2(O)[C@H]3Cc4ccc(OC)c5c4[C@@]2(CCN3C)[C@H]1O5 [α-6-mPEG6-O-Hydroxycodone, α-6-mPEG6-O-hydroxycodone]")
-1
>>> qualitative_label("COCCOCCOCCOCCOCCO[C@H]1CC[C@@]2(O)[C@H]3Cc4ccc(OC)c5c4[C@@]2(CCN3C)[C@H]1O5 [α-6-mPEG5-O-Hydroxycodone, α-6-mPEG5-O-hydroxycodone]")
-1
>>> qualitative_label("COCCOCCOCCOCCO[C@H]1CC[C@@]2(O)[C@H]3Cc4ccc(OC)c5c4[C@@]2(CCN3C)[C@H]1O5 [α-6-mPEG4-O-Hydroxycodone, α-6-mPEG4-O-hydroxycodone]")
-1

* * *

# Test System: cloned human mu opioid receptor (Homo sapiens (Human))
# Measurement Notes: cell-based
# Applied Conditions: inhibition of cAMP formation, 3 μM forskolin, CHO cells
pEC50: −log10 of the molar value.
This section presents molecules with their documented pEC50 values.
Measured Attribute: pEC50

>>> reported_result("COCCOCCOCCO[C@H]1CC[C@@]2(O)[C@H]3Cc4ccc(OC)c5c4[C@@]2(CCN3C)[C@H]1O5 [α-6-mPEG3-O-Hydroxycodone, α-6-mPEG3-O-hydroxycodone]")
5.55
>>> reported_result("COc1ccc2c3c1O[C@H]1C(O)CC[C@@]4(O)[C@@H](C2)N(C)CC[C@]314 (stereo partly drawn) [Hydroxycodone, α-6-hydroxycodone, reference compound]")
5.50
>>> reported_result("COCCOCCOCCOCCOCCO[C@H]1CC[C@@]2(O)[C@H]3Cc4ccc(OC)c5c4[C@@]2(CCN3C)[C@H]1O5 [α-6-mPEG5-O-Hydroxycodone, α-6-mPEG5-O-hydroxycodone]")
5.30

* * *

# Measurement Notes: in vivo
# Applied Conditions: male, Sprague-Dawley, rat, plasma, iv, 1 mg/kg
Measured Attribute: AUC (ng·h/mL)

>>> reported_result("COc1ccc2c3c1O[C@H]1[C@@H](O)C=C[C@H]4[C@@H](C2)N(C)CC[C@@]341")
183

* * *

# Measurement Notes: Oral pharmacokinetics in Sprague-Dawley rats
# Applied Conditions: male, rat, plasma, 5 mg/kg
Measured Attribute: Tmax (min)

>>> reported_result("COc1ccc2c3c1O[C@H]1[C@@H](O)C=C[C@H]4[C@@H](C2)N(C)CC[C@@]341")
15
>>> reported_result("COc1ccc2c3c1O[C@H]1C(=O)CC[C@@]4(O)[C@@H](C2)N(C)CC[C@]314 [Oxycodone, reference compound]")
15

* * *

# Measurement Notes: Intravenous pharmacokinetics in Sprague-Dawley rats
# Applied Conditions: male, Sprague-Dawley, rat, plasma, iv, 1 mg/kg
Measured Attribute: AUC(0-inf) (ng·h/mL)

>>> reported_result("COc1ccc2c3c1O[C@H]1C(=O)CC[C@@]4(O)[C@@H](C2)N(C)CC[C@]314 [Oxycodone, reference compound]")
217

* * *

# Test System: UniProtKB P35372
# Measurement Notes: cell-based
# Applied Conditions: inhibition of cAMP formation, 3 μM forskolin, CHO cells
Measured Attribute: EC50 (µM)

>>> reported_result("COCCOCCOCCOCCOCCOCCOCCO[C@H]1CC[C@@]2(O)[C@H]3Cc4ccc(OC)c5c4[C@@]2(CCN3C)[C@H]1O5 [α-6-mPEG7-O-Hydroxycodone, α-6-mPEG7-O-oxycodone]")
7.45
>>> reported_result("COCCO[C@H]1CC[C@@]2(O)[C@H]3Cc4ccc(OC)c5c4[C@@]2(CCN3C)[C@H]1O5 [α-6-mPEG1-O-Hydroxycodone, α-6-mPEG1-O-hydroxycodone]")
3.84
>>> reported_result("COCCOCCO[C@H]1CC[C@@]2(O)[C@H]3Cc4ccc(OC)c5c4[C@@]2(CCN3C)[C@H]1O5 [α-6-mPEG2-O-Hydroxycodone, α-6-mPEG2-O-hydroxycodone]")
5
>>> reported_result("COCCOCCOCCOCCOCCOCCO[C@H]1CC[C@@]2(O)[C@H]3Cc4ccc(OC)c5c4[C@@]2(CCN3C)[C@H]1O5 [α-6-mPEG6-O-Hydroxycodone, α-6-mPEG6-O-hydroxycodone]")
12.5
